# tgt: T1, human MSLN-R3-his protein (human, UniProt Q13421 487-598)
# T1 construct: Self-made in HEK293E cells; also called human MSLN-R3 protein; hMSLN-R3-his; not shown: His tag
# protocolText: ELISA on coated antigen, no antibody (column none)
measureName: OD450 (OD450)
The reply should be a number in OD450, with the unit left off.

>  <binder>
S009-F2.13.3 (antibody, human IgG1, kappa, V domains shown, Human-murine chimeric antibody: murine VH/VL on human IgG1 heavy and kappa light constant regions) VH: QVQLQQSGAELMKPGASVKLSCKATGYTFTGYWIEWVKQRPGHGLEWIGEILPGSGSTNYNEKFKGKATFTADTSSNTAYMQLSSLTTEDSAIYYCARAGAWFAYWGQGTLVTVSA VL: QIVLTQSPAIMSASLGERVTMTCTASSSVSSSYLHWYQQKPGSSPKLWTYSTSNLASGVPARFSGSGSGTSYSLTISSMEAEDAATYYCHQYHRSPWTFGGGTKLEIKR

>  <unitInfo>
OD450

>  <valueMeasured>
0.06

$$$$

[Q] Look at this binder and give its reported OD450. S009-F2.38.12 (antibody, human IgG1, kappa, V domains shown, Human-murine chimeric antibody: murine VH/VL on human IgG1 heavy and kappa light constant regions) VH: QVQLQQPGTELVKPGASVKLSCKASGYTFTSYWMHWVKQRPGQGLEWIGNINPSNGGTNYNEKIKNKATLTVDKSSSTAYMQLSSLTSEDSAVYYCARWNYYGNYPFDYWGQGTTLTVSS VL: DIVMTQSQKFMSTTVGDRVSITCKASQNVGTAVAWYQQKPGQSPKLLIYSASNRYTGVPDRFTGSGSGTDFTLTISNMQSEDLADYFCQQYSSYPLTFGAGTKLELKR
[A] 0.05

[Q] Look at this binder and give its reported OD450. S009-F2.23.12 (antibody, human IgG1, kappa, V domains shown, Human-murine chimeric antibody: murine VH/VL on human IgG1 heavy and kappa light constant regions) VH: QVQLQQPGTELVKPGASVKLSCKASGYTFTNYWMHWVKQRPGQGLEWIGNINPSNGGPYYNERFRSKATLTVDKSSSTAYMQLSSLTSEDSAVYYCARPYYGSSYGYFDYWGQGTTLTVSS VL: DIQMTQSPSSLSASLGGKVTITCKASQDINKYIAWYQHKPGKGPRLLIHYTSELQPGIPSRFSGNGSGRDYSFSISNLEPEDIATYYCLQYANPLRTFGGGTKLEIKR
[A] 0.06

[Q] Look at this binder and give its reported OD450. S009-F2-56.12 (antibody, human IgG1, kappa, V domains shown, Human-murine chimeric antibody: murine VH/VL on human IgG1 heavy and kappa light constant regions) VH: DVQLQESGPGMVKPSQSLSLTCTVTGYSITSGYDWHWIRHFPGNKLEWMGYISYSGSTNYNPSLKSRISITHDTSKNHFFLKLKSVTTEDTATYYCARGTGPDYWGQGTTLTVSS VL: DIVMTQSQKFMSTSVGDRVSITCKASQNVRTAVAWYQQKPGQSPKALIHLPSNRHTGVPDRFTGSGSGTDFTLTISNVQSEDLADYFCLQHWNYPLTFGGGTKLEIKR
[A] 0.06

[Q] Look at this binder and give its reported OD450. S009-F2.39.3 (antibody, human IgG1, kappa, V domains shown, Human-murine chimeric antibody: murine VH/VL on human IgG1 heavy and kappa light constant regions) VH: QVQLQQPGTELVKPGASVKLSCKASGYTFTNYWMHWVKQRPGQGLEWIGNINPSSGDSYYNERFMSKAKMTVDKSSSTAYMQLSSLTSEDSAVYYCARSGGLWLAFWGPGTLVTVSA VL: DIVMTQSPSSLAMSVGQKVTMSCKSSQTLLNSVSQNNYLAWYQQKPGQSPTLLVYFASTRESGVPDRFIGGGSGTDFTLTISSVQAEDLADYFCQQHYRTPYTFGGGTNLEIKR
[A] 0.05

[Q] Look at this binder and give its reported OD450. S009-F2.21.4 (antibody, human IgG1, kappa, V domains shown, Human-murine chimeric antibody: murine VH/VL on human IgG1 heavy and kappa light constant regions) VH: EVQLQQSGPELVKPGASVKIPCKASGYTFTDYNMDWVKQSHGKSLEWIGDINPNNGGSIYNQRFKGKATLTVDKSSSTAYMELRSLTSEDSAVYYCARRAYYSTGYFDVWGTGTTVTVSS VL: QIVLTQSPALMSASPGEKVTITCSASSSISYMHWFQQKPGTSPKLWIYSTSTLASGVPARFSGSGSGTSYSLTISRMEAEDTATYYCQQRSSYPPTFGGGTKLEIKR
[A] 0.06

[Q] Look at this binder and give its reported OD450. S009-F2.58.8 (antibody, human IgG1, kappa, V domains shown, Human-murine chimeric antibody: murine VH/VL on human IgG1 heavy and kappa light constant regions) VH: QVQLLQSGAELAKPGASVKLSCKASGYTFTSYWVHWVKQRPGQGLEWIGYINPNSGYTKYNQKFKDKATLTADKSSSTAYMQLSSLTYEDSAVYYCADHYYGSSRDYFDYWGQGTTLTVSS VL: QIVLTQSPAIMSASPGEKVTMTCSASSSVSYMYWYQQRPGSSPRLLIYDTSNLASGVPVRFSGSGSGTSYSLTISRMEAEDAATYYCQQWNSYPYTFGGGTKLEIKR
[A] 0.05

[Q] Look at this binder and give its reported OD450. S009-F2.16.10 (antibody, human IgG1, kappa, V domains shown, Human-murine chimeric antibody: murine VH/VL on human IgG1 heavy and kappa light constant regions) VH: QVQLQQPGAELIKPGASVKLSCKASGYTFTSYWMHWVKQRPGQGLEWIGIIHPNIGSTNYNERFKSKATLTVDKSSSTAYMQLSSLTSEDSAVYYCARRSSNYGDWYFDVWGTGTTVTVSS VL: DIVMTQSHRFMSTSVGDRVSITCKASQDVGTSVAWYQQKPGQSPKLLIYWASTQHTGVPDRFTGSGSGTDFTLTINNVQSEDLLDYFCQQYSSYPLTFGAGTKLELKR
[A] 0.06

[Q] Look at this binder and give its reported OD450. S009-F2.47.1 (antibody, human IgG1, kappa, V domains shown, Human-murine chimeric antibody: murine VH/VL on human IgG1 heavy and kappa light constant regions) VH: QVQLQQPGAELVKPGASVKLSCKASGYTFTSYWMHWVKQRPGQGLEWIGMIHPNSGSTNYNEKFKSKATLTVDKSSSTAYMQLSSLTSEDSAVYYCARPVVPYWYFDVWGTGTTVTVSS VL: DIVMTQSQKFMSTTVGDRVSITCKASQNVGTAVAWYQQKPGQSPKLLIYSASNRYTGVPDRFTGSGSGTDFTLTISNMQSEDLADYFCQQSSSYPLTFGAGTKLELKR
[A] 0.05
